Hey, just so you know, these numbers are from paper PMC12670405.

# Tested on: NGP
# assay-method-text: IncuCyte live-cell imaging, antiproliferative effect
# Assay type: cell-based
# condition-notes: Homo sapiens, 72 h, read-out: pGI50 (converted)
I'd appreciate it if you could supply GI50 values for the items below.
Give bare numbers, in µM.

Lab note: each molecule below needs its GI50 filled in.
1. O=C1CCC(N2C(=O)c3ccc(N4CCN(C(=O)COCCNC(=O)[C@]5(Cc6cccc(Nc7nccs7)n6)CC[C@@H](Oc6cccc(Cl)c6F)CC5)CC4)cc3C2=O)C(=O)N1 (some centres unmarked)
2. O=C1CCC(N2C(=O)c3cccc(N4CCN(C(=O)COCCOCCNC(=O)[C@]5(Cc6cccc(Nc7nccs7)n6)CC[C@@H](Oc6cccc(Cl)c6F)CC5)CC4)c3C2=O)C(=O)N1 (some centres unmarked)
3. Cc1cc(Nc2ccc(F)c(CC3(C(=O)N4CC(CN5CCN(c6ccc(N7CCC(=O)NC7=O)cn6)CC5)C4)CCN(Cc4cccc(Cl)c4F)CC3)n2)n[nH]1
4. Cc1cc(Nc2ccc(F)c(CC3(C(=O)N4CCC(F)(C(=O)N5CCN(c6ccc(N7CCC(=O)NC7=O)cn6)CC5)CC4)CCN(Cc4cccc(Cl)c4F)CC3)n2)n[nH]1
5. O=C1CCN(c2ccc(N3CCN(C4CCN(C(=O)[C@]5(Cc6cccc(Nc7nccs7)n6)CC[C@@H](Oc6cccc(Cl)c6F)CC5)C4)CC3)nc2)C(=O)N1 (some centres unmarked)

Response line:
0.112
0.0724
0.0977
0.0832
0.0447

----------
# target-desc: AURKA (Homo sapiens, UniProt O14965)
# Sequence (O14965 whole entry): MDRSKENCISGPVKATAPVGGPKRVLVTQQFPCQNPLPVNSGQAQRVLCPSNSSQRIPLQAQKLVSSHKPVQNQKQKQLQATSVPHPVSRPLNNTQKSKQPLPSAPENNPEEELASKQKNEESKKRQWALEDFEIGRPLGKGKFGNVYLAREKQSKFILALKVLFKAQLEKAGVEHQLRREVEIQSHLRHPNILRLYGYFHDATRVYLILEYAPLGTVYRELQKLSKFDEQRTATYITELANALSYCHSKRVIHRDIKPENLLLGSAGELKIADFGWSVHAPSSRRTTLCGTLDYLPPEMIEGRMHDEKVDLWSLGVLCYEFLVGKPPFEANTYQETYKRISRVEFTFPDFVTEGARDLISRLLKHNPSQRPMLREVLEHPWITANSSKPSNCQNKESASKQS
# assay-method-text: AURKA degradation, Simple Western;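 also: measured in NGP neuroblastoma cells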
# Assay type: cell-based
# Set-up: Representative Western blot showing levels of endogenous proteins MDR1, MYCN, AURKA, and CRBN in untreated cell lines; endogenous in cells; host or cells: NGP, IMR-32, SJNB-8, SK-N-BE(2)-C, SK-N-SH, SK-N-AS, SJNB-1, RPE, HEK293T
# condition-notes: 24h, 100nM
I'd appreciate it if you could supply AURKA Degradation 24h @100nM values for the items below.

Here are 4 compounds together with their reported answers.
- compound: "O=C1CCC(N2C(=O)c3ccc(N4CCN(C(=O)COCCOCCNC(=O)[C@]5(Cc6cccc(Nc7nccs7)n6)CC[C@@H](Oc6cccc(Cl)c6F)CC5)CC4)cc3C2=O)C(=O)N1 (stereo partly shown) [PROTAC 9]"
  result: 64
- compound: "O=C1CCC(Nc2ccc(N3CCN(C(=O)COCCNC(=O)[C@]4(Cc5cccc(Nc6nccs6)n5)CC[C@@H](Oc5cccc(Cl)c5F)CC4)CC3)cc2)C(=O)N1 (stereo partly shown) [PROTAC 15]"
  result: 38
- compound: "Cc1cc(Nc2ccc(F)c(CC3(C(=O)N4CCC(CN5CCC(c6ccc(N7CCC(=O)NC7=O)cn6)CC5)CC4)CCN(Cc4cccc(Cl)c4F)CC3)n2)n[nH]1 [PROTAC 36]"
  result: 58
- compound: "O=C1CCC(Nc2ccc(N3CCN(CC4CN(C(=O)[C@]5(Cc6cccc(Nc7nccs7)n6)CC[C@@H](Oc6cccc(Cl)c6F)CC5)C4)CC3)cc2)C(=O)N1 (stereo partly shown) [PROTAC 17]"
  result: 59

Lab note: each compound below needs its AURKA Degradation 24h @100nM filled in.
1. Cc1cc(Nc2ccc(F)c(CC3(C(=O)N4CC(N5CCC(c6ccc(N7CCC(=O)NC7=O)cn6)CC5)C4)CCN(Cc4cccc(Cl)c4F)CC3)n2)n[nH]1 [PROTAC 35]
2. O=C1CCC(Nc2ccc(N3CCN(C(=O)CNC(=O)[C@]4(Cc5cccc(Nc6nccs6)n5)CC[C@@H](Oc5cccc(Cl)c5F)CC4)CC3)cc2)C(=O)N1 (stereo partly shown) [PROTAC 14]
3. O=C1CCC(Nc2ccc(N3CCN(C(=O)[C@]4(Cc5cccc(Nc6nccs6)n5)CC[C@@H](Oc5cccc(Cl)c5F)CC4)CC3)cc2)C(=O)N1 (stereo partly shown) [PROTAC 12]

Response line:
[62, 61, 12]

Lab note: each compound below needs its AURKA Degradation 24h @100nM filled in.
1. O=C1CCC(N2C(=O)c3cccc(N4CCN(CCOCCOCCNC(=O)[C@]5(Cc6cccc(Nc7nccs7)n6)CC[C@@H](Oc6cccc(Cl)c6F)CC5)CC4)c3C2=O)C(=O)N1 (stereo partly shown) [PROTAC 1]
2. Cc1cc(Nc2ccc(F)c(CC3(C(=O)N4CCC(F)(C(=O)N5CCN(c6ccc(N7CCC(=O)NC7=O)cn6)CC5)CC4)CCN(Cc4cccc(Cl)c4F)CC3)n2)n[nH]1 [PROTAC 34]
3. O=C1CCC(N2C(=O)c3ccc(OCCN4CCN(C(=O)[C@]5(Cc6cccc(Nc7nccs7)n6)CC[C@@H](Oc6cccc(Cl)c6F)CC5)CC4)cc3C2=O)C(=O)N1 (stereo partly shown) [PROTAC 10]
4. O=C1CCC(N2C(=O)c3ccc(N4CCN(CCOCCNC(=O)[C@]5(Cc6cccc(Nc7nccs7)n6)CC[C@@H](Oc6cccc(Cl)c6F)CC5)CC4)cc3C2=O)C(=O)N1 (stereo partly shown) [PROTAC 6]

Response line:
[72, 83, 72, 76]

Lab note: each compound below needs its AURKA Degradation 24h @100nM filled in.
1. O=C1CCC(Nc2ccc(N3CCN(C4CN(C(=O)[C@]5(Cc6cccc(Nc7nccs7)n6)CC[C@@H](Oc6cccc(Cl)c6F)CC5)C4)CC3)c(F)c2)C(=O)N1 (stereo partly shown) [PROTAC 18]
2. O=C1CCC(N2C(=O)c3ccc(OCCOCCN4CCN(C(=O)[C@]5(Cc6cccc(Nc7nccs7)n6)CC[C@@H](Oc6cccc(Cl)c6F)CC5)CC4)cc3C2=O)C(=O)N1 (stereo partly shown) [PROTAC 11]

Response line:
88
78
